- Tested on: RXF 393 renal
- assay-comment: NCI tumour cell line growth inhibition, 48 h
Recorded TGI for the following compounds
reported-property: TGI

| compound | value-observed |
| --- | --- |
| CCn1c(O)c(C=Nc2ccccc2)s/c1=N/Nc1nc(-c2ccc(O)c(O)c2)cs1 | > 100 µM |
| COc1cccc(/C=C\c2ccnc3ccccc23)c1 | > 10 µM |
| C=C(C)CC(C)(c1cc2ccccc2n1C)N1CCOCC1 (stereo unspecified) | > 100 µM |
| CSc1ccc(/C=C2\N=C(c3ccccc3)N(/N=C3\C(=O)Nc4ccccc43)C2=O)cc1 | > 100 µM |
| C=C(CO)[C@H]1Oc2ccc(C(C)=O)cc2[C@@H]1O | > 100 µM |
| CCCCc1ccc(Nc2nc(Cl)c3ncn(C4CC(Oc5ccc(C)cc5)C(COc5ccc(C)cc5)O4)c3n2)cc1 (stereo unspecified) | > 100 µM |

====

- System: DMS 273 small cell lung
- assay-comment: NCI tumour cell line growth inhibition, 48 h
Listing of recorded TGI by entry.
reported-property: TGI

| compound | value-observed |
| --- | --- |
| Cc1ccc(N=NC(C2=NC(=O)CS2)c2nc3ccccc3[nH]2)cc1 (stereo not given) | > 100 µM |
| C=C(C)CC(C)(c1cc2ccccc2n1C)N1CCOCC1 (stereo not given) | > 100 µM |
| CCc1ccc([O-])c(C=NCCCN(C)CCCN=Cc2cc(C)ccc2[O-])c1.[Co+3].[N-]=[N+]=[N-] | > 150 µg/mL |
| Cc1ccc(NC(=O)C(=O)CC(=O)c2ccccc2)cc1C | > 100 µM |
| c1ccc2c(c1)N=C(c1ccc3ccccc3c1)CC(c1cccc3ccccc13)S2 (stereo not given) | > 100 µM |

====

Measured TGI accompanies every entry in the list below.
- Test system: OVCAR-3 ovarian
- assay-comment: NCI tumour cell line growth inhibition, 48 h

| compound | TGI |
| --- | --- |
| Nc1nc2ncn(CC(O)COC(=O)c3ccccc3)c2c(=O)[nH]1 (stereo not drawn) | > 100 µM |
| ClCCCCOC1CCCCO1 (stereo not drawn) | > 100 µM |
| CC(=O)N(CCCCNC(=O)C(F)(F)F)CCCNC(=O)C(F)(F)F | > 100 µM |

====

- Tested on: OVCAR-4 ovarian
- assay-comment: NCI tumour cell line growth inhibition, 48 h

| compound | TGI |
| --- | --- |
| Cc1c/c(=N/NC(=O)c2ccncc2)n2nc(N)sc2n1 | > 100 µM |
| CCSc1nc(-c2cccs2)nc2ccc(I)cc12 | > 100 µM |
| COc1cc(NC(=O)c2ccccc2Nc2ccnc(C(F)(F)F)c2)cc(OC)c1OC | > 100 µM |
| Cc1[nH]n(-c2ccccc2)c(=O)c1C(N(CCc1ccccc1)C1=NCC(C)S1)(C(F)(F)F)C(F)(F)F (stereo not given) | > 100 µM |
| COc1cccc(/C=C\c2ccnc3ccccc23)c1 | > 10 µM |

====

- System: T-47D breast
- assay-comment: NCI tumour cell line growth inhibition, 48 h
TGI for assorted compounds
reported-property: TGI

| smiles-structure | value-observed |
| --- | --- |
| C#Cc1ccc(-n2c(/C=C/c3ccc4ccccc4c3)nc3ncccc3c2=O)cc1 | > 100 µM |
| CCOC(=O)c1cc(-c2ccccc2)[nH]c1N/N=C/c1c(Cl)cccc1Cl | > 100 µM |
| CN1CCN(c2ccc(Nc3ncc4cc5n(c4n3)C3(CCCCC3)CNC5=O)nc2)CC1 | > 100 µM |
| NCCNCCCNC(=O)c1cc(-c2ccccc2)nc2ccccc12 | > 100 µM |
| CCc1ccc([O-])c(C=NCCCN(C)CCCN=Cc2cc(C)ccc2[O-])c1.[Co+3].[N-]=[N+]=[N-] | 50 µg/mL |

====

- Test system: SK-MEL-5 melanoma
- assay-comment: NCI tumour cell line growth inhibition, 48 h
Below, each entry is listed alongside its reported log10 TGI.
reported-property: log10 TGI (log10 of the value in µM)

| molecule | assayed-system | log10 TGI |
| --- | --- | --- |
| N#CC1=C(N)OC(c2cccc([N+](=O)[O-])c2)C1(C#N)C#N (stereo not drawn) | SK-MEL-5 melanoma | 1.50 |
| Cc1ccc(S(=O)(=O)N/N=C2\CC(C)OC3=C2CCCCCC3)cc1 (stereo not drawn) | SK-MEL-5 melanoma | 1.50 |
| Cc1cccc(/C=N/NC(=S)N(C)CCc2ccccn2)n1 | SK-MEL-5 melanoma | 0.97 |
| Cc1cccc(C)c1N1C(=O)C2c3[nH]c4ccccc4c3C3CCC(C(C)(C)C)CC3C2C1=O (stereo not drawn) | SK-MEL-5 melanoma | 1.46 |
| O=C(NCCCNCCCCNCCCNC(=O)c1cc(-c2ccccc2)nc2ccccc12)c1cc(-c2ccccc2)nc2ccccc12 | SK-MEL-5 melanoma | 1.42 |
| Fc1ccc(-c2nn3c(COc4ccc(Cl)cc4Cl)nnc3s2)cc1Oc1ccccc1 | SK-MEL-5 melanoma | 1.85 |
| COc1cc2c(cc1O)C1CC(CC3CCCCN31)OC(=O)/C=C\c1ccc(O)c-2c1 (stereo not drawn) | SK-MEL-5 melanoma | 1.50 |
| Cc1cn2c(/C=C3/C(=O)Nc4ccc(Cl)cc43)c(C)nc2s1 | SK-MEL-5 melanoma | 1.16 |
| COCCOC1=C(Cl)C(=O)c2c(O)ccc(O)c2C1=O | SK-MEL-5 melanoma | 0.71 |
| Cc1cc(C#Cc2ccccc2)ccc1-n1c(/C=C/c2cc(O)ccc2O)nc2ccccc2c1=O | SK-MEL-5 melanoma | 0.42 |
| CCOC(=O)Nc1cc2c(c(N)n1)N=C(c1ccc3ccccc3c1)CN2 | SK-MEL-5 melanoma | 0.67 |
| CC(NC(=O)OC(C)(C)C)C(=O)NC(Cc1ccccc1)C(=O)NCC(=O)Oc1c(Cl)c(Cl)c(Cl)c(Cl)c1Cl (stereo not drawn) | SK-MEL-5 melanoma | 1.44 |
| CCOC(=O)c1cc(-c2ccccc2)[nH]c1N/N=C/c1c(Cl)cccc1Cl | SK-MEL-5 melanoma | 1.15 |
| O=c1c2cc(S(=O)(=O)O)ccc2nc(COc2ccc(Oc3ccc(Cl)cc3Cl)cc2)n1C(=S)Nc1ccc(Cl)cc1 | SK-MEL-5 melanoma | 1.52 |
| COC(=O)/C=C1\CCCN1CCc1cc2c(cc1CC#N)OCO2 | SK-MEL-5 melanoma | 1.91 |
| O=C(CSc1nc2ccc(I)cc2c(=O)n1Cc1ccccc1)NN1C(=O)c2ccccc2C1=O | SK-MEL-5 melanoma | 1.84 |
| CS(=O)(=O)OCCN(CCOS(C)(=O)=O)c1ccc(/C=N/Nc2ncnc3nc[nH]c23)cc1 | SK-MEL-5 melanoma | 1.50 |
| CN1CCN(c2ccc(Nc3ncc4cc5n(c4n3)C3(CCCCC3)CNC5=O)nc2)CC1 | SK-MEL-5 melanoma | 1.19 |

====

- System: COLO 205 colon
- assay-comment: NCI tumour cell line growth inhibition, 48 h

| compound | TGI |
| --- | --- |
| CCO[C@]12CCC[C@H]1[C@@H]1C(=O)c3ccccc3C(=O)C1=C(C)O2 | > 100 µM |
| CCOC(=O)c1cc(-c2ccccc2)[nH]c1N/N=C/c1c(Cl)cccc1Cl | 15.3 µM |
| O=c1c2cc(O)c(O)cc2oc2cc(O)c(C3OC(CO)C(O)C(O)C3O)c(O)c12 (stereo unspecified) | > 100 µM |
| O=c1oc2c/c(=C\c3ccccn3)c(=O)c3cccc1c3-2 | > 100 µM |
| Clc1ccc(-c2nc3ccc4ccccc4c3c3c2CCCC3)cc1 | > 100 µM |
| O=C1CC[C@@H](NC(=O)Cc2ccccc2)C(=O)N1 | > 100 µM |
| Cc1c/c(=N/NC(=O)c2ccncc2)n2nc(N)sc2n1 | > 100 µM |
| COC(=O)c1ccc(/C=C2\Oc3cc(O)ccc3C2=O)cc1 | > 100 µM |
| CN1CCc2cc3c4cc2C1Cc1ccc(cc1)Oc1cc(ccc1O)CC1c2c(cc(O)c(c2O4)O3)CCN1C (stereo unspecified) | 21.9 µM |
| O=C1CSC(c2ccccc2O)N1c1nc2cc3sc(N4C(=O)CSC4c4ccccc4O)nc3cc2s1 (stereo unspecified) | > 100 µM |
| Nc1nnc2oc3ccc4ccccc4c3cc1-2 | 56.8 µM |
| C=C(C)CC(C)(c1cc2ccccc2n1C)N1CCOCC1 (stereo unspecified) | > 100 µM |
| CCSc1nnc(-c2ccccc2)nc1Cc1ccc(OC)cc1 | > 100 µM |
| Oc1cccc(-c2nc(-c3ccccc3)[nH]c2-c2ccncc2)c1 | 12.2 µM |
| O=C(c1ccccc1)N1CCC(Nc2nccs2)O1 (stereo unspecified) | > 10 µM |
| NNc1ncc2c(n1)-c1ccccc1OC2 | > 100 µM |
| CO/N=C(\C)c1cccc(Nc2nc3ccccc3c3occc23)c1 | 24.5 µM |
| CC(=O)C(C=O)C(C)=O.CC(=O)CC(C)=O.CC(=O)CC(C)=O.[Ru] | > 100 µM |
| N#CC1CCCCC1NC1(C#N)CCCCC1 (stereo unspecified) | > 100 µM |
| O=C(CSc1ncc(-c2ccccc2)n1-c1ccccc1)Nc1ccc(-c2nc3ccccc3s2)cc1 | > 100 µM |
| NC(=O)c1ncn(Cc2ccccc2)c1CNC(N)=S | > 100 µM |
| CSc1nc2nc(C(O)C(O)C(O)CO)cnc2c(=O)[nH]1 (stereo unspecified) | > 100 µM |
| CC(=O)NC(CCCNC(=O)OCc1ccccc1)C(=O)O (stereo unspecified) | > 100 µM |
| O=C(/C=C/c1ccc(O)cc1)c1cc(Cl)ccc1O | > 100 µM |
| COc1cc([N+](=O)[O-])ccc1NC(=O)c1cccc([N+](=O)[O-])c1O | 40.3 µM |
| COc1ccc2c(c1)C(=O)c1c-2c(N2CCN(C(=O)CCNCCNCCO)CC2)nc2ccccc12 | 29.8 µM |
| Cc1cc(C#Cc2ccccc2)ccc1-n1c(/C=C/c2cc(O)ccc2O)nc2ccccc2c1=O | 2.8 µM |
| CC(NC(=O)OC(C)(C)C)C(=O)NC(Cc1ccccc1)C(=O)NCC(=O)Oc1c(Cl)c(Cl)c(Cl)c(Cl)c1Cl (stereo unspecified) | 70.9 µM |
| CCCCc1ccc(Nc2nc(Cl)c3ncn(C4CC(Oc5ccc(C)cc5)C(COc5ccc(C)cc5)O4)c3n2)cc1 (stereo unspecified) | > 100 µM |
| Cc1ccc([N+](=O)[O-])cc1S(=O)(=O)Nc1ccc(C2=NOC(c3ccccc3O)C2)cc1 (stereo unspecified) | 19.8 µM |
| COC(=O)/C=C1\CCCN1CCc1cc2c(cc1CC#N)OCO2 | > 100 µM |
